Measured IC50 of individual entries
target: JAK3 (Homo sapiens (Human)); experiment: IC50 against JAK3; format: biochemical
Sequence (P52333 whole entry, species assumed): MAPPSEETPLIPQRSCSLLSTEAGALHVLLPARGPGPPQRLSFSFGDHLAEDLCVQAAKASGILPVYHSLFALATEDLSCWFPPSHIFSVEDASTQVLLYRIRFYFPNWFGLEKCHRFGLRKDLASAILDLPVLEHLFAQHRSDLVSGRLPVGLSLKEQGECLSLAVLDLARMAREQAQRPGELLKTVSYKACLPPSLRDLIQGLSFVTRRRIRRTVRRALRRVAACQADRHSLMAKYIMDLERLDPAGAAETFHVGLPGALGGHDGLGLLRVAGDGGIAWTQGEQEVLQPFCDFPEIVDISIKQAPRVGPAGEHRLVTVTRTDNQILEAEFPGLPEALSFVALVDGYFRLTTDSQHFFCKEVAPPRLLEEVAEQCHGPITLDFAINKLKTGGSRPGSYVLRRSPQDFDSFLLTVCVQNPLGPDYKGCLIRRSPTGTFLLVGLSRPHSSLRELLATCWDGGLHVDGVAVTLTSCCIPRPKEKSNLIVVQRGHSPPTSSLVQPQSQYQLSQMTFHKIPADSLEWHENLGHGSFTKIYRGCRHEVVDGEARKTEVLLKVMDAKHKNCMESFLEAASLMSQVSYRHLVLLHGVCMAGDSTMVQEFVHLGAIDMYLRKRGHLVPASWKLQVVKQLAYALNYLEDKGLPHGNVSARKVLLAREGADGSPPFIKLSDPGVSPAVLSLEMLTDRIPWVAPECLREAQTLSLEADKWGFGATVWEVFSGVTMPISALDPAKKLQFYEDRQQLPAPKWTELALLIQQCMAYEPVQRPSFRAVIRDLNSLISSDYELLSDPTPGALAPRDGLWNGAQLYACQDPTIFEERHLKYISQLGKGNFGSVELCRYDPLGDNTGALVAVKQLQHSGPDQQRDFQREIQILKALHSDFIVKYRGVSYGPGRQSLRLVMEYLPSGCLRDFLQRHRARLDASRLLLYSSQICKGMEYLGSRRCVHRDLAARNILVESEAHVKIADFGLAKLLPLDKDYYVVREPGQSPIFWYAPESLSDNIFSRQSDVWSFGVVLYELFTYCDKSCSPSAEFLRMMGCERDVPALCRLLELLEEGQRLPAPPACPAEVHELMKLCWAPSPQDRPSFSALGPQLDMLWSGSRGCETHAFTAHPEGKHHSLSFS

Below are worked cases with known answers.
compound	valueObserved
C=CC(=O)N1CCN(C(=O)c2cc(Sc3cnc(Nc4ccc(CN(C)C)cn4)s3)c(C)cc2OC)CC1 [Compound 134]	10 to 100 nM
C=CC(=O)N1CCCN(C(=O)c2cc(Sc3cnc(NC(=O)C4CC4)s3)c(C)cc2OC)CCC1 [Compound 53]	1000 to 10000 nM
C=CC(=O)N1CCN(C(=O)c2cc(Sc3cnc(NC(=O)c4cnn(C)c4)s3)c(C)cc2OC)C[C@H]1CC [Compound 115]	1000 to 10000 nM
CC#CC(=O)N1CCCN(C(=O)c2cc(Sc3cnc(NC(=O)c4cccc(CN(C)C)c4)s3)c(C)cc2OC)CC1 [Compound 38]	≥ 10000 nM

Continue with the compound presented below.
Entry C=CC(=O)N1CC[C@@H](N(C)C(=O)c2cc(Sc3cnc(Nc4ccccn4)s3)c(C)cc2OC)C1 [Compound 154] ; IC50 = < 10 nM

---

Measured IC50 of individual entries
target: UniProt P42681; assay: IC50 against TXK; format: biochemical

compound	IC50
C=CC(=O)N1CCN(C(=O)c2cc(Sc3cnc(Nc4ccccn4)s3)c(C)cc2OC)CC1 [Compound 98]	< 10 nM
C=CC(=O)N1CCN(C(=O)c2cc(Sc3cnc(NC(=O)C4CC4)s3)c(C)cc2OC)[C@@H](C)C1 [Compound 19]	< 10 nM
C=CC(=O)N1C[C@H]2CC[C@@H](C1)N2C(=O)c1cc(Sc2cnc(NC(=O)C3CC3)s2)c(C)cc1OC [Compound 17]	< 10 nM
C=CC(=O)N1CCN(C(=O)c2cc(Sc3cnc(NC(C)=O)s3)c(C)cc2OC)CC1(C)C [Compound 6]	100 to 1000 nM

Simply: C=CC(=O)N1CCN(C(=O)c2cc(Sc3cnc(NC(=O)C4CC4)s3)c(C)cc2OC)C[C@H]1C#N [Compound 43] , UniProt P42681, IC50 = < 10 nM

Simply: C=CC(=O)N1CCCN(C(=O)c2cc(Sc3cnc(NC(=O)c4ccsc4)s3)c(C)cc2OC)C[C@H]1CC [Compound 120] , UniProt P42681, IC50 = 100 to 1000 nM

Simply: C=CC(=O)N1CCCN(C(=O)c2cc(Sc3cnc(NC(=O)C4CC4)s3)c(C)cc2C)C[C@H]1C [Compound 59] , UniProt P42681, IC50 = 100 to 1000 nM

---

target: UniProt:Q08881; assay: IC50 against ITK; assay type: biochemical
observable: IC50

Below are worked cases with known answers.
C=CC(=O)N1CCC2(C1)CN(C(=O)c1cc(Sc3cnc(Nc4ccccn4)s3)c(C)cc1OC)C2 < 10 nM
C=CC(=O)N1CCN(C(=O)c2cc(Sc3cnc(NC(=O)c4cccc(CN(C)C)c4)s3)c(C)cc2C)C[C@H]1CC < 10 nM
C=CC(=O)N1CCCN(C(=O)c2cc(Sc3cnc(NC(=O)CC)s3)c(C)cc2OC)C[C@H]1C 10 to 100 nM
C=CC(=O)N1CCCN(C(=O)c2cc(Sc3cnc(NC(=O)c4ccsc4)s3)c(C)cc2C)C[C@H]1CC < 10 nM
C=CC(=O)N1CCN(C(=O)c2cc(Sc3cnc(NC(=O)C4CC4)s3)c(Cl)cc2C)C[C@H]1C < 10 nM

Entry C=CC(=O)N1CCCN(C(=O)c2cc(Sc3cnc(NC(=O)c4cccc(CN(C)C)c4)s3)c(C)cc2OC)C[C@H]1C ; IC50 = 10 to 100 nM

Entry C=CC(=O)N1CCN(C(=O)c2cc(Sc3cnc(NC(C)=O)s3)c(C)cc2OC)C[C@H]1C ; IC50 = < 10 nM

---

target: TXK (Homo sapiens (Human), UniProt P42681); experiment: IC50 against TXK; assay type: biochemical; settings: ratio of TXK IC50 to ITK IC50
Sequence (P42681 whole entry, species assumed): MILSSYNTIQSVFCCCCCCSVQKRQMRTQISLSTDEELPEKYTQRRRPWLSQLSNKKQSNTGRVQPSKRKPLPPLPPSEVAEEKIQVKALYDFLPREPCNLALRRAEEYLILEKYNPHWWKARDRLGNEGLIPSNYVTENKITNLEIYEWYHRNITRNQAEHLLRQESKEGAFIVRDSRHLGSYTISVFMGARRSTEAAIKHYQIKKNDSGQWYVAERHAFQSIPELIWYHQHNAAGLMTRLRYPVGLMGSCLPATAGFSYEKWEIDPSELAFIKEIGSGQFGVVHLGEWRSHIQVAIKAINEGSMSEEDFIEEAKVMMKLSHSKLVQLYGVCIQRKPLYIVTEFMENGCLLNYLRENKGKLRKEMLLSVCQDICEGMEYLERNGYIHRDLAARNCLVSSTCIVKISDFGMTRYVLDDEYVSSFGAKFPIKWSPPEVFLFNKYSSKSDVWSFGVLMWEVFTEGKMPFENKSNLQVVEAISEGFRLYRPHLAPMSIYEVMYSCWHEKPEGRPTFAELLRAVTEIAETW
observable: TXK/ITK

C=CC(=O)N1CCN(C(=O)c2cc(Sc3cnc(NC(=O)C4CCC4)s3)c(C)cc2OC)CC1 21.948
C=CC(=O)N1CCN(C(=O)c2cc(Sc3cnc(NC(=O)C4CC4)s3)c(C)cc2C)CC1 3.2627
C=CC(=O)N1CCN(C(=O)c2cc(Sc3cnc(NC(=O)c4cccc(CN(C)C)c4)s3)c(C)cc2C)CC1 61.8
C=CC(=O)N1CCN(C(=O)c2cc(Sc3cnc(NC(=O)C4CC4)s3)c(Cl)cc2C)C[C@H]1C 19.042
C=CC(=O)N1CCN(C(=O)c2cc(Sc3cnc(NC(=O)c4ccsc4)s3)c(C)cc2C)CC1 13.5

[I] C=CC(=O)N1CCCN(C(=O)c2cc(Sc3cnc(NC(=O)C4CC4)s3)c(C)cc2Cl)C[C@H]1C
[II] C=CC(=O)N1CCN(C(=O)c2cc(Sc3cnc(NC(=O)C4CC4)s3)c(C)cc2OC)C[C@H]1C
Could you check which of I and II has a smaller value for TXK/ITK? Select an item and report its label. II
(II: 22.223, I: 50.716)

---

target: UniProt:Q06187; test: IC50 against BTK; assay type: biochemical
Sequence (Q06187 whole entry, species assumed): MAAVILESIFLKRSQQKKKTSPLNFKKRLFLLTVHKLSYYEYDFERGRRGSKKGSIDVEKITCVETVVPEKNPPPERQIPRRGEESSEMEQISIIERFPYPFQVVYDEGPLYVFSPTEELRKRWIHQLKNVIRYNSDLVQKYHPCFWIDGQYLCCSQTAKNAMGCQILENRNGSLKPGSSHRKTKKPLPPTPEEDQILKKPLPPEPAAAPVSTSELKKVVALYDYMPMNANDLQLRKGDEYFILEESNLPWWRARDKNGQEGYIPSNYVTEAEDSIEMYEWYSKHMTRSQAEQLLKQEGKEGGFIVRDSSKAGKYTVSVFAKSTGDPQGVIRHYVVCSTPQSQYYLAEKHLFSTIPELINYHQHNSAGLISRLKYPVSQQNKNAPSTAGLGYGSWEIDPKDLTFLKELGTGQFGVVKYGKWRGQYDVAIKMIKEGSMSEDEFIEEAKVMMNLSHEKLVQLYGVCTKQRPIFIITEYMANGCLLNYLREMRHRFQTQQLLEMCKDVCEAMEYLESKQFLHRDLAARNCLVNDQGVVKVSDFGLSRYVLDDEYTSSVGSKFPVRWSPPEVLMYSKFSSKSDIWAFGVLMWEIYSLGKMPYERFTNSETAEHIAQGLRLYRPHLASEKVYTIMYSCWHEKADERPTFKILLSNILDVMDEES
observable: IC50

C=CC(=O)N1CCN(C(=O)c2cc(Sc3cnc(NC(=O)c4ccsc4)s3)c(C)cc2C)C[C@H]1CC 100 to 1000 nM

Entry C=CC(=O)N1CCN(C(=O)c2cc(Sc3cnc(NC(=O)c4ccsc4)s3)c(C)cc2OC)[C@@H](C)C1 ; IC50 = 10 to 100 nM

Entry C=CC(=O)N1CCN(C(=O)c2cc(Sc3cnc(NC(=O)C4CC4)s3)ccc2OC)CC1 ; IC50 = 100 to 1000 nM

Entry C=CC(=O)N1CCN(C(=O)c2cc(Sc3cnc(NC(=O)c4ccsc4)s3)c(C)cc2C)CC1 ; IC50 = 10 to 100 nM

---

target: ITK (Homo sapiens (Human), UniProt Q08881); test: IC50 against ITK; type: biochemical
Sequence (Q08881 whole entry): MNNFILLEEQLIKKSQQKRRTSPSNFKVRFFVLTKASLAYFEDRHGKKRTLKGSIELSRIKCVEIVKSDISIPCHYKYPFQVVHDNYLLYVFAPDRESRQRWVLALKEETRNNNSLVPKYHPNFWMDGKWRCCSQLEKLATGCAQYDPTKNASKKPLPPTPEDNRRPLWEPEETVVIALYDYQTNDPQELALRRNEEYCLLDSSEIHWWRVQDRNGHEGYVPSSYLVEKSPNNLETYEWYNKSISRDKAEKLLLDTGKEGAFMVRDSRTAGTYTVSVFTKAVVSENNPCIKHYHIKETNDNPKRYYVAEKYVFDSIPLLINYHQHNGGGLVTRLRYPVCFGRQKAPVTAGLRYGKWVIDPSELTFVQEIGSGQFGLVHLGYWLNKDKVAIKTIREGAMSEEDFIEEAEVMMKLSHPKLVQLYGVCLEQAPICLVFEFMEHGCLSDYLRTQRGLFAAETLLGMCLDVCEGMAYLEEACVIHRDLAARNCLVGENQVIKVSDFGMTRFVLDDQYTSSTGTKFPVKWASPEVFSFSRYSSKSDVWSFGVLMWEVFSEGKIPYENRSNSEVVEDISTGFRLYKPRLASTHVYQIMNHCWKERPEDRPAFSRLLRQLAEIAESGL
observable: IC50

Below are worked cases with known answers.
compound	observable	valueObserved
C=CC(=O)N1C[C@H]2CC[C@@H](C1)N2C(=O)c1cc(Sc2cnc(NC(=O)c3ccsc3)s2)c(C)cc1OC [Compound 143]	IC50	< 10 nM
C=CC(=O)N1CCN(C(=O)c2cc(C(C)c3cnc(NC(=O)C4CC4)s3)c(C)cc2OC)CC1 (centres unmarked) [Compound 140]	IC50	< 10 nM
C=CC(=O)N1C[C@H]2CC[C@@H](C1)N2C(=O)c1cc(Sc2cnc(NC(C)=O)s2)c(C)cc1OC [Compound 7]	IC50	< 10 nM
C=CC(=O)N1CCN(C(=O)c2cc(Sc3cnc(NC(=O)C4CC4)s3)c(Cl)cc2C)CC1 [Compound 80]	IC50	< 10 nM

Simply: C=CC(=O)N1CCN(C(=O)c2cc(Sc3cnc(NC(=O)C4CC4)s3)c(Cl)cc2C)C[C@H]1CC [Compound 101] , ITK (Homo sapiens (Human), UniProt Q08881), IC50 = 10 to 100 nM

Simply: C=CC(=O)N1CCCN(C(=O)c2cc(Sc3cnc(NC(=O)C4CC4)s3)c(C)cc2OC)CCC1 [Compound 53] , ITK (Homo sapiens (Human), UniProt Q08881), IC50 = < 10 nM

Simply: C=CC(=O)N1CCN(C(=O)c2cc(Sc3cnc(NC(=O)C4CC4)s3)c(C)cc2Cl)C[C@H]1CC [Compound 99] , ITK (Homo sapiens (Human), UniProt Q08881), IC50 = 10 to 100 nM

Simply: COc1cc(C)c(Sc2cnc(NC(=O)C3CC3)s2)cc1C(=O)N1CCCN(C(=O)/C=C/CN(C)C)[C@H](C)C1 [Compound 94] , ITK (Homo sapiens (Human), UniProt Q08881), IC50 = 100 to 1000 nM

Simply: C=CC(=O)N1CCN(C(=O)c2cc(Sc3cnc(NC(=O)c4ccsc4)s3)c(C)cc2OC)C[C@H]1C#N [Compound 156] , ITK (Homo sapiens (Human), UniProt Q08881), IC50 = < 10 nM

Simply: C=CC(=O)N1CCCN(C(=O)c2cc(Sc3cnc(NC(=O)C4CC4)s3)c(C)cc2OC)C[C@H]1CC [Compound 111] , ITK (Homo sapiens (Human), UniProt Q08881), IC50 = < 10 nM

Simply: C=CC(=O)N1CCN(C(=O)c2cc(Sc3cnc(NC(=O)c4cnn(C)c4)s3)c(C)cc2C)CC1 [Compound 108] , ITK (Homo sapiens (Human), UniProt Q08881), IC50 = < 10 nM

Simply: C=CC(=O)N1CCN(C(=O)c2cc(Sc3cnc(NC(=O)C4CC4)s3)c(C)cc2OC)CC1 [Compound 1] , ITK (Homo sapiens (Human), UniProt Q08881), IC50 = < 10 nM

Simply: C=CC(=O)N1[C@@H]2CC[C@H]1CN(C(=O)c1cc(Sc3cnc(Nc4ccccn4)s3)c(C)cc1OC)C2 [Compound 150] , ITK (Homo sapiens (Human), UniProt Q08881), IC50 = < 10 nM

Simply: C=CC(=O)N1CCN(C(=O)c2cc(Sc3cnc(NC(=O)c4cnsc4)s3)c(C)cc2C)C[C@H]1CC [Compound 131] , ITK (Homo sapiens (Human), UniProt Q08881), IC50 = < 10 nM

Simply: C=CC(=O)N1CCCN(C(=O)c2cc(C)c(C)c(Sc3cnc(NC(=O)C4CC4)s3)c2)C[C@H]1C [Compound 64] , ITK (Homo sapiens (Human), UniProt Q08881), IC50 = 100 to 1000 nM

Simply: C=CC(=O)N1CCN(C(=O)c2cc(Sc3cnc(NC(C)=O)s3)c(C)cc2C)C[C@H]1C#N [Compound 119] , ITK (Homo sapiens (Human), UniProt Q08881), IC50 = < 10 nM

Simply: C=CC(=O)N1C[C@@H]2C[C@H]1CN2C(=O)c1cc(Sc2cnc(NC(C)=O)s2)c(C)cc1OC [Compound 24] , ITK (Homo sapiens (Human), UniProt Q08881), IC50 = < 10 nM

Simply: C=CC(=O)N1CCCN(C(=O)c2cc(Sc3cnc(NC(=O)C4CC4)s3)c(C)cc2C)C[C@H]1CC [Compound 112] , ITK (Homo sapiens (Human), UniProt Q08881), IC50 = < 10 nM

Simply: C=CC(=O)N1CC[C@@H](N(C)C(=O)c2cc(Sc3cnc(NC(C)=O)s3)c(C)cc2OC)C1 [Compound 28] , ITK (Homo sapiens (Human), UniProt Q08881), IC50 = < 10 nM

Simply: C=CC(=O)N1CCN(C(=O)c2cc(Sc3cnc(NC(=O)C4CC4)s3)c(C)cc2OC)C[C@@H]1C [Compound 22] , ITK (Homo sapiens (Human), UniProt Q08881), IC50 = < 10 nM

Simply: C=CC(=O)N1CCN(C(=O)c2cc(Sc3cnc(NC(=O)c4nccn4C)s3)c(C)cc2OC)CC1 [Compound 96] , ITK (Homo sapiens (Human), UniProt Q08881), IC50 = < 10 nM

Simply: C=CC(=O)N1CCCN(C(=O)c2cc(Sc3cnc(NC(=O)c4ccsc4)s3)c(C)cc2OC)C[C@H]1C(C)C [Compound 149] , ITK (Homo sapiens (Human), UniProt Q08881), IC50 = < 10 nM

Simply: C=CC(=O)N1CCCN(C(=O)c2cc(Sc3cnc(NC(=O)C4CC4)s3)c(C)cc2OC)[C@@H](C)C1 [Compound 72] , ITK (Homo sapiens (Human), UniProt Q08881), IC50 = 100 to 1000 nM

Simply: C=CC(=O)N1CCN(C(=O)c2cc(Sc3cnc(NC(=O)c4ccncc4)s3)c(C)cc2OC)CC1 [Compound 87] , ITK (Homo sapiens (Human), UniProt Q08881), IC50 = < 10 nM

Simply: C=CC(=O)N1C[C@H]2CN(C(=O)c3cc(Sc4cnc(NC(=O)C5CC5)s4)c(C)cc3OC)C[C@H]21 [Compound 52] , ITK (Homo sapiens (Human), UniProt Q08881), IC50 = < 10 nM

Simply: C=CC(=O)N1CCC2(C1)CN(C(=O)c1cc(Sc3cnc(NC(=O)C4CC4)s3)c(C)cc1OC)C2 [Compound 46] , ITK (Homo sapiens (Human), UniProt Q08881), IC50 = < 10 nM

Simply: C=CC(=O)N1CCN(C(=O)c2cc(Sc3cnc(NC(=O)C4CC4)s3)c(C)cc2OC)C[C@H]1C#N [Compound 43] , ITK (Homo sapiens (Human), UniProt Q08881), IC50 = < 10 nM

Simply: C=CC(=O)N1CC[C@@H](N(C)C(=O)c2cc(Sc3cnc(NC(=O)c4ccsc4)s3)c(C)cc2OC)C1 [Compound 146] , ITK (Homo sapiens (Human), UniProt Q08881), IC50 = < 10 nM

Simply: C=CC(=O)N1CCCN(C(=O)c2cc(Sc3cnc(NC(=O)C4CC4)s3)c(Cl)cc2C)C[C@H]1C [Compound 62] , ITK (Homo sapiens (Human), UniProt Q08881), IC50 = < 10 nM
